experiment: In vivo PK profiling, plasma and brain exposure; parameters: species or system male CD-1 (ICR) mice; conditions: male, CD-1 (ICR), mouse, brain/plasma, intravenous; at 30 minutes; 5 mg/kg via tail vein injection; read-out: brain/plasma ratio, maximum
REPORTED_ENDPOINT: Kp at 30 min

{"SMILES_STRING": "CCN(CCOCCF)c1cc2sc(/C=C/c3ccc(O)c(Br)c3)nc2cc1C", "REPORTED_VALUE": 2.55}

---

experiment: In vivo PK profiling, plasma and brain exposure; parameters: species or system male CD-1 (ICR) mice; details: male, CD-1 (ICR), mouse, brain/plasma, intravenous; at 1 minute; 5 mg/kg via tail vein injection; read-out: brain/plasma ratio
# Kp at 1 min annotations
REPORTED_ENDPOINT: Kp at 1 min

{"SMILES_STRING": "Cc1cc2nc(/C=C/c3ccc(O)c(N)c3)sc2cc1N(C)CCOCCF", "REPORTED_VALUE": 0.24}
{"SMILES_STRING": "CCN(CCOCCF)c1cc2sc(/C=C/c3ccc(O)c(Br)c3)nc2cc1C", "REPORTED_VALUE": 0.05}
{"SMILES_STRING": "COc1c(/C=C/c2nc3cc(C)c(N(C)CCOCCF)cc3s2)ccc(O)c1Br", "REPORTED_VALUE": 0.12}

---

# half-life annotations
Assay: In vivo PK profiling, plasma and brain exposure
Parameters: species or system male CD-1 (ICR) mice
Conditions: male, CD-1 (ICR), mouse, plasma, intravenous; 5 mg/kg via tail vein injection
Experimental: To test whether these compounds are brain permeable in vivo, in vivo PK profiling was conducted to determain brain exposure. An in vivo PK study was performed in male CD-1 (ICR) mice. Weighed a known amount of test compound and dissolved in vehicle (5% NMP + 15% Solutol + 80% PBS) to make a formulation (1 mg/mL). Then administered 5 mg/kg compound via tail vein injection into mice. […]

{"SMILES_STRING": "CCN(CCOCCF)c1cc2sc(/C=C/c3ccc(O)c(Br)c3)nc2cc1C", "half-life (min)": 32.4}
{"SMILES_STRING": "Cc1cc2nc(/C=C/c3ccc(O)c(N)c3)sc2cc1N(C)CCOCCF", "half-life (min)": 68.4}

---

test: In vivo PK profiling, plasma and brain exposure; parameters: species or system male CD-1 (ICR) mice; conditions: male, CD-1 (ICR), mouse, brain/plasma, intravenous; at 15 minutes; 5 mg/kg via tail vein injection; read-out: brain/plasma ratio, maximum
# Kp at 15 min annotations
REPORTED_ENDPOINT: Kp at 15 min

{"SMILES_STRING": "Cc1cc2nc(/C=C/c3ccc(O)c(N)c3)sc2cc1N(C)CCOCCF", "REPORTED_VALUE": 1.29}
{"SMILES_STRING": "COc1c(/C=C/c2nc3cc(C)c(N(C)CCOCCF)cc3s2)ccc(O)c1Br", "REPORTED_VALUE": 3.37}

---

molecular target: Tau aggregates (Homo sapiens, UniProt P10636); assay: Fluorescence binding assay with protein aggregates (fluorescence spectrophotometer); conditions: Tau aggregates; compound 5 µM, 37°C, 5 min
Sequence (P10636 with tags, fused parts or gaps): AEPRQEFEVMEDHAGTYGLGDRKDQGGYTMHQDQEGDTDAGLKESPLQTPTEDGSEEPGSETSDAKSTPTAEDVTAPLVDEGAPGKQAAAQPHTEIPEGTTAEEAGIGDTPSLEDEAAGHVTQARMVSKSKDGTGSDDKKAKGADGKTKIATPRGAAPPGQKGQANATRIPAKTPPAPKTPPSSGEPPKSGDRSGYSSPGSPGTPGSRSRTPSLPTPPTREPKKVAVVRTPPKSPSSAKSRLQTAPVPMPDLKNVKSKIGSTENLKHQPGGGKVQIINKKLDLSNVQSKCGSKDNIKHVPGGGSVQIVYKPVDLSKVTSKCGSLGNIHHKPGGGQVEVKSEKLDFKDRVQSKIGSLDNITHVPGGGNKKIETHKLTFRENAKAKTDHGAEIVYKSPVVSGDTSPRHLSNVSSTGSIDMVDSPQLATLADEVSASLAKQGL
pKd: −log10 of the molar value.
# pKd annotations

{"SMILES_STRING": "CCN(CCOCCF)c1cc2sc(/C=C/c3ccc(O)c(Br)c3)nc2cc1C", "pKd": 5.59}
{"SMILES_STRING": "Cc1cc2nc(/C=C/c3ccc(O)c(N)c3)sc2cc1N(C)CCOCCF", "pKd": 6.20}
{"SMILES_STRING": "COc1c(/C=C/c2nc3cc(C)c(N(C)CCOCCF)cc3s2)ccc(O)c1Br", "pKd": 7.44}
